tested on: HT29 colon; test: NCI tumour cell line growth inhibition, 48 h; in the data active means GI50 below about 0.43 µM; inactive means the rest
Outcome codes: Yes for active, No for inactive

item_smiles	group
COc1ccc(-c2cc(Nc3ccnc(N4CCOCC4)n3)on2)cc1	Yes
Cn1cc(-c2csc(-c3cn(C)c4ccc(F)cc34)n2)c2cnccc21	No
NCCN.O=C([O-])[O-].O=C([O-])[O-].[Co+3].[K+]	No
Cc1ccc2[c](c1)[Sn]([c]1ccccc1)([c]1ccccc1)[c]1cc(C)ccc1N2C	No
NCCCn1c2c(c3ccccc3c1=O)C(=O)c1ccccc1-2	Yes

---

tested on: CAKI-1 renal; assay: NCI tumour cell line growth inhibition, 48 h
readout: TGI

compound	target_or_system	readout	measurement
N#CC(C#N)=C1CCCOc2c1ccc1ccccc21	CAKI-1 renal	TGI	> 100 µM
COc1cc2nc(-c3cccs3)nc(Cl)c2cc1OC	CAKI-1 renal	TGI	> 100 µM
O=[N+]([O-])c1ccc(Sc2c3ccccc3nc3ccccc23)cn1	CAKI-1 renal	TGI	11.7 µM
C=C1C(=O)OC2C1CC(OC(C)=O)/C(C)=C/CCC1(C)OC21 (configuration not stated)	CAKI-1 renal	TGI	> 100 µM
C/C(=N\NC(=S)N1CCCC1)c1nc2ncccc2[nH]1	CAKI-1 renal	TGI	37.1 µM
C[P+](C)(C)c1ccccc1	CAKI-1 renal	TGI	> 100 µM
NCCCNCCCCN1CCOC1=O	CAKI-1 renal	TGI	> 100 µM
Oc1c(Br)ccc2cccnc12	CAKI-1 renal	TGI	60.3 µM
CC1(C)OP(=O)(O)C=C1Sc1ccc([N+](=O)[O-])cc1[N+](=O)[O-]	CAKI-1 renal	TGI	> 100 µM
Nc1c(S(=O)(=O)c2ccccc2)c2nc3ccccc3nc2n2c1nc1ccccc12	CAKI-1 renal	TGI	> 100 µM
NC(=O)c1cn(Cc2ccccc2)c(=O)n1Cc1ccccc1	CAKI-1 renal	TGI	> 100 µM
c1ccc(NCCSc2nc3ccccc3s2)cc1	CAKI-1 renal	TGI	> 100 µM

All values here come from PubChem BioAssay (NCI).
